Biological target: Cytochrome P450 1A2 (Homo sapiens, UniProt P05177);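 also: PubChem cytochrome P450 panel assay, CYP1A2 panel member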
Sequence (P05177 whole entry): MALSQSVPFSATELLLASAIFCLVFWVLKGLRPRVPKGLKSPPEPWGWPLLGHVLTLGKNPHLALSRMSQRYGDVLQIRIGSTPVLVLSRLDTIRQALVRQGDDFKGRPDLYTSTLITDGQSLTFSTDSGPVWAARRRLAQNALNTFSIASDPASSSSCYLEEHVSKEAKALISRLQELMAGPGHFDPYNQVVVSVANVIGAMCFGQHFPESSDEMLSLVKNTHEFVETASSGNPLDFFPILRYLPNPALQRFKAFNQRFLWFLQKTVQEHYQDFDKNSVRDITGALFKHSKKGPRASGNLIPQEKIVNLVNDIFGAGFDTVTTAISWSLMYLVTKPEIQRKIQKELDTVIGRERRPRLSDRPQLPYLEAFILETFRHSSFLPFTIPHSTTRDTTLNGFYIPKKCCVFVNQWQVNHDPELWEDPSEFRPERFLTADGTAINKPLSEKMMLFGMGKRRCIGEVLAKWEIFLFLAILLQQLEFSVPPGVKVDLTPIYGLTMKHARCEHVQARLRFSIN
In this section we review reported AC50 values for a set of compounds.

[
  {
    "COMPOUND STRUCTURE STRING": "Sc1nnc(CSCc2ccccc2Cl)n1-c1ccccc1",
    "AC50": "22.4 µM (inconclusive)"
  },
  {
    "COMPOUND STRUCTURE STRING": "CCNc1ncc2nc(-c3ccc(OC)cc3)c(=O)n(CCOC)c2n1",
    "AC50": "1.26 µM (inconclusive)"
  },
  {
    "COMPOUND STRUCTURE STRING": "O=C(CSc1nnc(-c2cccc(S(=O)(=O)N3CCOCC3)c2)n1C1CCCCCC1)NCc1ccccc1",
    "AC50": "39.8 µM (inconclusive)"
  },
  {
    "COMPOUND STRUCTURE STRING": "Cc1ccc(S(=O)(=O)N2CCN(C(=O)CN3CCN(C)CC3)C2)cc1",
    "AC50": "15.8 µM (inconclusive)"
  },
  {
    "COMPOUND STRUCTURE STRING": "COc1ccccc1OC[C@H](O)COC(N)=O",
    "AC50": "10 µM (inconclusive)"
  },
  {
    "COMPOUND STRUCTURE STRING": "Cc1ccc(CNc2nc(N)c([N+](=O)[O-])c(Nc3ccc(F)cc3)n2)cc1",
    "AC50": "1.12 µM (inconclusive)"
  },
  {
    "COMPOUND STRUCTURE STRING": "O=C(O)[C@H]1C[C@@H](CP(=O)(O)O)CCN1",
    "AC50": "25.1 µM (inconclusive)"
  },
  {
    "COMPOUND STRUCTURE STRING": "O=C(CN1CCCCC1)Nc1cccc([N+](=O)[O-])c1",
    "AC50": "39.8 µM (inconclusive)"
  },
  {
    "COMPOUND STRUCTURE STRING": "CN(C)S(=O)(=O)Oc1cccc(C(=O)Nc2ccc(Cl)c(Cl)c2)c1",
    "AC50": "2 µM (inconclusive)"
  },
  {
    "COMPOUND STRUCTURE STRING": "CS(=O)(=O)N1CCN(c2c(Cl)cccc2[N+](=O)[O-])CC1",
    "AC50": "28.2 µM (inconclusive)"
  },
  {
    "COMPOUND STRUCTURE STRING": "O=C(c1ccncc1)N1CCC[C@@]2(CCN(c3ccccn3)C2)C1",
    "AC50": "20 µM (inconclusive)"
  }
]

###

# maps each entry to its IC50
Target: Large T antigen (Simian virus 40);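 also: Confirmatory-stage PubChem screen for compounds that inhibit SV40 T antigen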
Sequence (P03070 whole entry): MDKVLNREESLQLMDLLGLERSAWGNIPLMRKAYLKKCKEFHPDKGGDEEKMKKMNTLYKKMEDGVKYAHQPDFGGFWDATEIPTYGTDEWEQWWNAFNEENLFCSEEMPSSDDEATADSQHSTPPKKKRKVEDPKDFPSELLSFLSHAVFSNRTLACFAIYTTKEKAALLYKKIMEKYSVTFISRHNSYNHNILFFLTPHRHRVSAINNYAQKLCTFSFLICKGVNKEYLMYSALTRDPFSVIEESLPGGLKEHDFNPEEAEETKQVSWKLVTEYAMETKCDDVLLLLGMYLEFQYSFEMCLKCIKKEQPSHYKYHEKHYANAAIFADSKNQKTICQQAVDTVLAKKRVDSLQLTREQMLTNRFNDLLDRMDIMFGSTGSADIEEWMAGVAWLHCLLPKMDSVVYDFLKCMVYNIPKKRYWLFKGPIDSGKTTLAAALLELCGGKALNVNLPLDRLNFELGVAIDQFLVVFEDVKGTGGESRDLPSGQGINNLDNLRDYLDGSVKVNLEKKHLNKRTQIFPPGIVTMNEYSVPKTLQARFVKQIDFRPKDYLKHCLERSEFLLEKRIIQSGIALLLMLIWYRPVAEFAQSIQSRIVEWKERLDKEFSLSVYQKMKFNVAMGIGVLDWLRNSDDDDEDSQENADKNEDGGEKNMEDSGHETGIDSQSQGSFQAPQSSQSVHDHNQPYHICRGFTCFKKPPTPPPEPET
Type: functional, Betapolyomavirus macacae
Calls of active or inactive are those of the source.

[
  {
    "COMPOUND STRUCTURE STRING": "Cc1cc2cc3c(N)[nH]nc3nc2cc1C",
    "IC50": "30.3 µM (active)"
  },
  {
    "COMPOUND STRUCTURE STRING": "CCOC(=O)CNc1c(-c2ccc(O)cc2)nc2ccccn12",
    "IC50": "14.7 µM (active)"
  },
  {
    "COMPOUND STRUCTURE STRING": "Oc1ccc(/C=C/c2cc(O)cc(O)c2)cc1",
    "IC50": "26.2 µM (active)"
  },
  {
    "COMPOUND STRUCTURE STRING": "Nc1ncnc2oc(-c3ccco3)c(-c3ccco3)c12",
    "IC50": "49.5 µM (active)"
  },
  {
    "COMPOUND STRUCTURE STRING": "C=CCn1c(SCC(=O)c2ccc(O)c(O)c2)nnc1-c1cccnc1",
    "IC50": "14.5 µM (active)"
  },
  {
    "COMPOUND STRUCTURE STRING": "CCN(CC)c1ccc(NC(=O)CCNS(=O)(=O)c2ccc3c(c2)CCC(=O)N3)c(C)c1",
    "IC50": "42.6 µM (active)"
  }
]

###

Target: Beta-2 adrenergic receptor (Homo sapiens, UniProt P07550)
Sequence (P07550 whole entry): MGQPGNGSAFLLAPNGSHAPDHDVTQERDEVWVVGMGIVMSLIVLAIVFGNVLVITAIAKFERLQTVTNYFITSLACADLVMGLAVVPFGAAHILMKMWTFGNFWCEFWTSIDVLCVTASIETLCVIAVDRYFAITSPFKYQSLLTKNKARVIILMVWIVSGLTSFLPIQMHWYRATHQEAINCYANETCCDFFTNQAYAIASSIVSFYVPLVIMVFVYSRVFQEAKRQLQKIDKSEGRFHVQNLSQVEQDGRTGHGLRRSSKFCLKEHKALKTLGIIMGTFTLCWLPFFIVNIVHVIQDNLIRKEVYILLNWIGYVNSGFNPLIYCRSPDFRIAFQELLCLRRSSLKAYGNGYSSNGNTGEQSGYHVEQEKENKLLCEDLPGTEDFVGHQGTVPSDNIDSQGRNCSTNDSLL
Assay: ADRB2 activation measured by internalization – cell-based, FAP fluorogen, flow cytometry, cherry pick 1, dose response (AID 588763)
Assay type: functional
Active and inactive are the calls of the source.
# maps each entry to its EC50
PROPERTY MEASURED: EC50

[
  {
    "MOLECULE": "CCc1ccc(OCC(=O)Nc2ccc(-c3nc4ccccc4o3)c(O)c2)cc1",
    "PROPERTY MEASURED": "EC50",
    "RECORDED RESULT": "476 nM (active)"
  },
  {
    "MOLECULE": "CC(Sc1nc(-c2ccccc2)cc(C(F)(F)F)n1)C(=O)N1CCCC1 (stereo not given)",
    "PROPERTY MEASURED": "EC50",
    "RECORDED RESULT": "243 nM (active)"
  },
  {
    "MOLECULE": "CCc1ccc(CNC(=O)c2ccc(NC(=O)C3=CSCCO3)cc2)cc1",
    "PROPERTY MEASURED": "EC50",
    "RECORDED RESULT": "94.9 nM (active)"
  },
  {
    "MOLECULE": "CCC(=O)Nc1ccc(-c2nn3c(C)nnc3s2)cc1C",
    "PROPERTY MEASURED": "EC50",
    "RECORDED RESULT": "3120 nM (active)"
  },
  {
    "MOLECULE": "CC(C)Cc1nc2sc3c(NCc4ccco4)ncnc3c2c2c1COC(C)(C)C2",
    "PROPERTY MEASURED": "EC50",
    "RECORDED RESULT": "615 nM (active)"
  }
]

###

# EC50 annotations
Target: Peroxisome proliferator-activated receptor gamma/Nuclear receptor coactivator 2 (Homo sapiens, UniProt P37231)
Sequence (P37231 whole entry): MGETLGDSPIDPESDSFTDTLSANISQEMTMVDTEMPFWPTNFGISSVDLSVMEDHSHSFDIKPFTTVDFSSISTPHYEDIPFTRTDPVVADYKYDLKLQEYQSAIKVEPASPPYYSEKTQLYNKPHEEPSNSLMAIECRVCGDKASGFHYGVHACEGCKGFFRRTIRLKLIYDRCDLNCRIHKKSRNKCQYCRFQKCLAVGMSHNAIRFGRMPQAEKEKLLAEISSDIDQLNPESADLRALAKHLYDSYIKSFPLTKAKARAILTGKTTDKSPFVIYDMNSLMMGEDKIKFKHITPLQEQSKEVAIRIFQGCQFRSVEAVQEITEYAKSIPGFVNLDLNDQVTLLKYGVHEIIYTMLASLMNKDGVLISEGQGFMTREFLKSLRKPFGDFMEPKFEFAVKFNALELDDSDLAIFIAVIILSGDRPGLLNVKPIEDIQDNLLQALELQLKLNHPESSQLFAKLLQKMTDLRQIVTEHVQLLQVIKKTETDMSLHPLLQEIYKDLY
Sequence (Q15596 whole entry, further chain): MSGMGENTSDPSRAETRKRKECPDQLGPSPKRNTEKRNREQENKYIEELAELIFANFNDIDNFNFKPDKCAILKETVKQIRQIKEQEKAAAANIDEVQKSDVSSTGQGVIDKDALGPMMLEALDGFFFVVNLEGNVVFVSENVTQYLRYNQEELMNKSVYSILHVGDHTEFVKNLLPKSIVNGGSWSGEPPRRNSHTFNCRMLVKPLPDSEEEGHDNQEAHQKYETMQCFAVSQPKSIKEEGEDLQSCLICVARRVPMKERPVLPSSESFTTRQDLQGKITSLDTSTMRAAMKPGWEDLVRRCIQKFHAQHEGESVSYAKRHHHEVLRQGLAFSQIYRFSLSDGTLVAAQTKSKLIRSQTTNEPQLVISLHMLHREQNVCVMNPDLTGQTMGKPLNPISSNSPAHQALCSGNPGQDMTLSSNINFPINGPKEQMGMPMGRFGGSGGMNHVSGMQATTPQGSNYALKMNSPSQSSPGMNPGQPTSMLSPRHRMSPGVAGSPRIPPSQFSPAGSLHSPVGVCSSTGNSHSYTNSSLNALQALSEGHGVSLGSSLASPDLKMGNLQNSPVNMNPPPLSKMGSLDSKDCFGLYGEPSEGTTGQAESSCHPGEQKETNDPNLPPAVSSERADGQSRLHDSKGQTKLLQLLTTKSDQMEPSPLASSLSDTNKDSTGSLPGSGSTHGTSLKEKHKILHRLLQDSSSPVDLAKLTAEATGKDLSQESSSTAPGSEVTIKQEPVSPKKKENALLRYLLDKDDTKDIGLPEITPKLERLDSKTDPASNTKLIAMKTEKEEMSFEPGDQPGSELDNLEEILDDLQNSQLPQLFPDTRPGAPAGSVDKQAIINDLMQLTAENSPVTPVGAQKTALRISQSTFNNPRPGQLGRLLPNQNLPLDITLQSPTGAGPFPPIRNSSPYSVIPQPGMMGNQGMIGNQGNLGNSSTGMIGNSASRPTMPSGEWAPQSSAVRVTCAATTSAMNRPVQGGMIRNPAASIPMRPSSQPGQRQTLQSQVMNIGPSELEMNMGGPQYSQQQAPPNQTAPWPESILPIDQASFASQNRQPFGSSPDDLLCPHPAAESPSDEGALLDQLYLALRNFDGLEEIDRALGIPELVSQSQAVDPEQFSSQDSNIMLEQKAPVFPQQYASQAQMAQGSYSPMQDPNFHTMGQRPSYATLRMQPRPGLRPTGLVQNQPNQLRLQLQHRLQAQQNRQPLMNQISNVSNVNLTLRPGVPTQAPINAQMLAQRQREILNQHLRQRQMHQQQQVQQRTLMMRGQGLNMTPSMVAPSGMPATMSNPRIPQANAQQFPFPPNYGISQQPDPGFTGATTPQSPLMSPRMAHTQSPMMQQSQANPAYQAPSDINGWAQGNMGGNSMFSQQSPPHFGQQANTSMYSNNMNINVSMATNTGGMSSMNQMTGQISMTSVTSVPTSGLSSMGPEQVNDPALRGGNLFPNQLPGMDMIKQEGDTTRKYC
Assay: TR-FRET dose response biochemical High Throughput Screening assay for agonists of the steroid receptor coactivator 2 (SRC-2) recruitment by the peroxisome proliferator-activated receptor gamma (PPAR gamma): non-selective agonists. [Related pubchem assays: 1297, 1032 ]
Type: functional
The source made the active and inactive calls.

[
  {
    "COMPOUND STRUCTURE STRING": "CC(C)OC(=O)CNc1nnc(S)nc1O",
    "EC50": "2.47 µM (active)"
  },
  {
    "COMPOUND STRUCTURE STRING": "NC(=O)CSc1ncnc2c1oc1ccccc12",
    "EC50": "> 26.5 µM (not active)"
  },
  {
    "COMPOUND STRUCTURE STRING": "CCSc1nnc(-c2ccccc2SC)o1",
    "EC50": "237 µM (not active)"
  },
  {
    "COMPOUND STRUCTURE STRING": "Fc1ccc(-c2nnsc2Sc2ccccn2)cc1",
    "EC50": "11.8 µM (not active)"
  }
]

###

Biological target: UniProt P9WHJ3
Assay: Fluorescence Cell-Free Homogeneous Dose Retest to Identify Inhibitors of RecA-Intein Splicing Activity. [Related pubchem assays (depositor defined):AID2097, AID2223, AID489010, AID492950]
Assay type: functional
The source made the active and inactive calls.
Outcomes: active, inactive

[
  {
    "COMPOUND": "COc1cc(-n2nc(C)c3c2OC(N)=C(C#N)C3c2ccccc2)c(Cl)c(Br)c1O (stereo not given)",
    "LABEL CLASS": "active"
  },
  {
    "COMPOUND": "CCOC(=O)C(C)Sc1ncnc2c1nnn2-c1ccc(F)cc1 (stereo not given)",
    "LABEL CLASS": "active"
  },
  {
    "COMPOUND": "COC(=O)C1CN(C#N)N(c2ccc(Cl)cc2)C12c1ccccc1-c1ccccc12 (stereo not given)",
    "LABEL CLASS": "active"
  },
  {
    "COMPOUND": "O=C(O)c1ccc(NC2=C(n3nnc4ccccc43)C(=O)c3ccccc3C2=O)cc1",
    "LABEL CLASS": "active"
  },
  {
    "COMPOUND": "COC(=O)CC1=NN(c2nc(C)cc(C)n2)C(=O)C1",
    "LABEL CLASS": "inactive"
  }
]
